- System: BxPC3 human pancreatic adenocarcinoma cells
- experimental-protocol: Cell proliferation assay with Alamar Blue (AB), BxPC3
- Assay type: cell-based
- experimental-context: Homo sapiens, BXPC-3, read-out: AB: BxPC3
For each record, write down the corresponding IC50.
Answers are plain numbers, in µM.

COc1ccc(Nc2cc(NC3CC3)n3ncc(/C=C4\NC(=O)NC4=O)c3n2)cc1Cl
5.66
O=C1NC(=O)/C(=C/c2cnn3c(NC4CC4)cc(-c4ccc(F)c(C(=O)N5CCOCC5)c4)nc23)N1
1.81
O=C1NC(=O)/C(=C/c2cnn3c(NC4CC4)cc(NC(=O)C4CC4)nc23)N1
11

Shifting focus to the molecule that follows.
Find IC50 (BxPC3 human pancreatic adenocarcinoma cells) for the entry O=C1NC(=O)/C(=C/c2cnn3c(NC4CC4)cc(Nc4cccc(F)c4)nc23)N1 [Example D1]
4.07
